# System: Splenocyte
# Assay Comment: Immunosuppressive activity in BALB/c mouse splenocytes assessed as inhibition of LPS-stimulated B-cell proliferation incubated for 48 hrs by MTT assay
# Assay type: functional, cell-based
pIC50: −log10 of the molar value.
Listing of entries alongside the reported pIC50.
Test Readout: pIC50

[[record]]
line_notation = "COc1cc(O)c2c(c1)/C=C/CCC(=O)[C@@H](O)CCC[C@H](C)OC2=O"
test_readout = "pIC50"
experimental_result = "< 4.30"

[[record]]
line_notation = "COc1cc(O)c2c(c1)/C=C/CC[C@H](O)C(=O)CCC[C@H](C)OC2=O"
test_readout = "pIC50"
experimental_result = "< 4.30"

[[record]]
line_notation = "COc1cc(O)c2c(c1)/C=C/C[C@H](O)[C@@H](O)C(=O)CCC[C@H](C)OC2=O"
test_readout = "pIC50"
experimental_result = "< 4.30"

